Test system: LL2 cells
protocol.text: Resazurin viability assay of LL2 cells (Example 4)
Assay type: cell-based, mouse
test.conditions: read-out: IC50 without bem
metric.name: IC50 (µM)
Reply numerically in µM, unit not repeated.

Tell me IC50 reported for N.N.[Cl][Pt][Cl] [Cisplatin, cisplatin]
6.19
